target: MMP-9 (Homo sapiens); construct: purified from the culture medium; assay: Assay for inhibitory activities on MMP-9 (fluorogenic MOCAc peptide substrate); conditions: MMP-9 purified from human fibrosarcoma HT1080 cells, activated by TPCK-Trypsin
Sequence (P14780 107-707 limits assumed): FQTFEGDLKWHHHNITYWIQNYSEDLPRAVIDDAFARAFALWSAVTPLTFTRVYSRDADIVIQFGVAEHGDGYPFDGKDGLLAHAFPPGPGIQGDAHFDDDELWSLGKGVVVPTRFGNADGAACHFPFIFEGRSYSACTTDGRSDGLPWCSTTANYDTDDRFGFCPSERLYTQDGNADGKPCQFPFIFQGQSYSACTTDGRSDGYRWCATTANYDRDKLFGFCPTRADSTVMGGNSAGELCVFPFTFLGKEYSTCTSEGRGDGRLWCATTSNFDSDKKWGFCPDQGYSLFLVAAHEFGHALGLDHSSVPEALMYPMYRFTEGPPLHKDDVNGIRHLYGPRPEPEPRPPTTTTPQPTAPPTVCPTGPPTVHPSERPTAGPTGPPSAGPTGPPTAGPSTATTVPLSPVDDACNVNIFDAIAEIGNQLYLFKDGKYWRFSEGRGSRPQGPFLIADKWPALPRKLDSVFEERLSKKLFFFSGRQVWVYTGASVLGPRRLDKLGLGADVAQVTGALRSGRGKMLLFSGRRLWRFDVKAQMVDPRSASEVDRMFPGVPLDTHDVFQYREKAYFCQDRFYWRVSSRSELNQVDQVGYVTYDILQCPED
observable: pIC50
# pIC50 is unitless: minus log10 of the molar concentration; print number only

[[record]]
compound = "O=C(O)[C@@H](Cc1c[nH]c2ccc(F)cc12)NS(=O)(=O)c1ccc(-c2ccc(N3CCCC3)cc2)s1 [Compound A-9]"
testresult = 9.27

[[record]]
compound = "Cc1ccc(C#Cc2ccc(S(=O)(=O)N[C@H](Cc3c[nH]c4cccc(O)c34)C(=O)O)s2)cc1 [Compound A-4]"
testresult = 7.61

[[record]]
compound = "O=C(O)[C@H](Cc1c[nH]c2ccc(F)cc12)NS(=O)(=O)c1ccc(-c2ccc(N3CCCC3)cc2)s1 [Compound A-10]"
testresult = 7.92


Prompt line: // returns reported pIC50 for input Cc1ccc(C#Cc2ccc(S(=O)(=O)N[C@H](Cc3c[nH]c4c(O)cccc34)C(=O)O)s2)cc1 [Compound A-5]
Response line: 8.19
